MEASURED_TARGET: UniProtKB Q96RI0
ASSAY_PROTOCOL: FLIPR assay in PAR4-expressing HEK293 cells (PAR4 antagonist activity, calcium mobilization)
Format: cell-based
CONDITION_DETAILS: FLIPR assay as described in Example A
Note that class boundaries on IC50 are low band = under 0.01 µM, middle band = from 0.01 µM up to 0.3 µM, high band = 0.3 µM and over

# COMPOUND, CATEGORY_LABEL
rows = [
    ("Cc1cc2oc(-c3cn4nc(Br)sc4n3)cc2cc1Cl [Example 277]", "high band"),
    ("COc1cc(OCc2cccc(OCc3ccc(Oc4ccccc4)cc3)c2)c2cc(-c3cn4nc(OC)sc4n3)oc2c1 [Example 372]", "low band"),
    ("CCOc1nn2cc(-c3cc4c(OCc5cccc(OCc6ccccc6)c5)cc(OC)cc4o3)nc2s1 [Example 348]", "low band"),
    ("c1ccc2oc(-c3cn4nc(C5CC5)sc4n3)cc2c1 [Example 63]", "middle band"),
]

query: Using the reported IC50, which band applies to CCOc1cc(OC)cc2oc(-c3cn4nc(Br)sc4n3)cc12 [Example 267] ?
result: low band

query: Moving on to the next compound: COc1cc(OCc2cccc(OCc3cc(Cl)cc(Cl)c3)c2)c2cc(-c3cn4nc(OC)sc4n3)oc2c1 [Example 376]
result: low band

query: Moving on to the next compound: COc1cc(OCc2cccc(OCc3ccccc3I)c2)c2cc(-c3cn4nc(OC)sc4n3)oc2c1 [Example 379]
result: low band

query: Moving on to the next compound: CSc1nn2cc(-c3nc4ccc(OCCF)cc4o3)nc2s1 [Example 118]
result: middle band

###

MEASURED_TARGET: PAR4 (Homo sapiens (Human))
Sequence (Q96RI0 18-385): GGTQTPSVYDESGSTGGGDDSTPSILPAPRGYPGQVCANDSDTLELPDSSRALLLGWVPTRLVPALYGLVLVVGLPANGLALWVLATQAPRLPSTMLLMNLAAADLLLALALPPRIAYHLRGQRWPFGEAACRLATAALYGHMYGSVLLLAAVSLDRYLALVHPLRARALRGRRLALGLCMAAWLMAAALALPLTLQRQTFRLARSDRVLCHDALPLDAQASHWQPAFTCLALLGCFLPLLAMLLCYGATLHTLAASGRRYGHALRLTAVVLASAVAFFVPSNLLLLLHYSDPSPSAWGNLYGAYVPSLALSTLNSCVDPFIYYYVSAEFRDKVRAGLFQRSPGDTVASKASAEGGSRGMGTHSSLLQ
ASSAY_PROTOCOL: FLIPR assay in PAR4-expressing HEK293 cells (PAR4 antagonist activity, calcium mobilization)
Type: cell-based
CONDITION_DETAILS: FLIPR assay as described in Example A
# pIC50 annotations
As a rule, pIC50 stands for the negative log10 of the concentration, concentration in M.

Reference set, count: 8
# COMPOUND, OBS_VALUE
data = [
    ("CCc1nn2cc(-c3cc4ccccc4o3)nc2s1", 7.17),
    ("COc1nn2cc(-c3cc4cc(OC(F)(F)F)ccc4o3)nc2s1", 6.73),
    ("COc1cc(OCc2cccc(OCc3ccccc3)c2)c2cc(-c3cn4nc(SC)sc4n3)oc2c1", 9.01),
    ("CCOC(=O)CCCCCOc1cccc2cc(-c3cn4nc(CC)sc4n3)oc12", 5.83),
    ("COc1cc(OCc2cccc(OCc3cc(C(F)(F)F)ccc3F)c2)c2cc(-c3cn4nc(OC)sc4n3)oc2c1", 8.17),
    ("COc1nn2cc(-c3cc4cc(Cl)ccc4o3)nc2s1", 7.72),
    ("COc1cc(OCc2ccc(OC)c(OCc3ccccc3)c2)c2cc(-c3cn4nc(OC)sc4n3)oc2c1", 8.65),
    ("CCc1nn2cc(-c3nc4ccc(OC5CCC5)cc4o3)nc2s1", 6.53),
]

query: What does the record list as pIC50 for COc1cc(OCc2cccc(OCc3ccccc3C(F)(F)F)c2)c2cc(-c3cn4nc(OC)sc4n3)oc2c1 ?
result: 8.47

query: Moving on to the next compound: CCc1nn2cc(-c3nc4ccc(OC)cc4o3)nc2s1
result: 6.66

query: Moving on to the next compound: CCc1nn2cc(-c3nc4cc(Cl)ccc4o3)nc2s1
result: 6.87

query: Moving on to the next compound: CC(F)(F)c1nn2cc(-c3cc4ccc(OCc5ccccc5)cc4o3)nc2s1
result: 6.54

query: Moving on to the next compound: CSc1nn2cc(-c3cc4cccc(C)c4o3)nc2s1
result: 6.66

query: Moving on to the next compound: COc1cc(OCc2ccc(F)cc2)c2cc(-c3cn4nc(SC)sc4n3)oc2c1
result: 7.64

query: Moving on to the next compound: CCc1nn2cc(-c3nc4cc(C(C)(C)C)ccc4o3)nc2s1
result: 6.24

query: Moving on to the next compound: Fc1cccc2oc(-c3cn4nc(Br)sc4n3)cc12
result: 6.92

query: Moving on to the next compound: COc1cc(OCc2cccc(OCc3cccc(C(F)(F)F)c3F)c2)c2cc(-c3cn4nc(OC)sc4n3)oc2c1
result: 8.38

query: Moving on to the next compound: CC(F)(F)c1nn2cc(-c3cc4c(OCc5cccc(OCc6ccccc6)c5)cc(OS(=O)(=O)C(F)(F)F)cc4o3)nc2s1
result: 6.16

query: Moving on to the next compound: COc1cc(OCc2cccc(OCc3cccc(OCc4cccc(Cl)c4)c3)c2)c2cc(-c3cn4nc(OC)sc4n3)oc2c1
result: 6.59

query: Moving on to the next compound: COc1cc(OCc2cccc(OCc3cccnc3)c2)c2cc(-c3cn4nc(OC)sc4n3)oc2c1
result: 8.67

###

MEASURED_TARGET: PAR4 (Homo sapiens (Human))
ASSAY_PROTOCOL: FLIPR assay in PAR4-expressing HEK293 cells (PAR4 antagonist activity, calcium mobilization)
Assay type: cell-based
CONDITION_DETAILS: FLIPR assay as described in Example A
pIC50: −log10 of the molar value.
Classification field: met = pIC50 at or over 7; not met = pIC50 under 7.

A selection of reference data follows.
# COMPOUND, CATEGORY_LABEL
measured = [
    ("COc1nn2cc(-c3cc4cc(Br)c(OC)cc4o3)nc2s1", "met"),
    ("C[C@@H](F)c1nn2cc(-c3cc4c(Cl)cc(Cl)cc4o3)nc2s1 [Example 213A]", "not met"),
    ("COc1cc(OC(C)C)c2cc(-c3cn4nc(OC)sc4n3)oc2c1", "met"),
]

query: Confirm if pIC50 reported for the compound Cc1ccc2cc(-c3cn4nc(C(F)(F)Cl)sc4n3)oc2c1 is 7 or above.
result: not met

query: Moving on to the next compound: C[C@H](F)c1nn2cc(-c3cc4c(Cl)cc(Cl)cc4o3)nc2s1 [Example 213B]
result: met

query: Moving on to the next compound: COc1cc(OCc2ccccc2)c2nc(-c3cn4nc(OC)sc4n3)oc2c1
result: met

query: Moving on to the next compound: COc1cc(OCc2cccc(OCc3ccc(C(C)(C)C)cc3)c2)c2cc(-c3cn4nc(OC)sc4n3)oc2c1
result: met

###

# log10 of IC50 annotations
MEASURED_TARGET: PAR4 (Homo sapiens (Human))
ASSAY_PROTOCOL: FLIPR assay in PAR4-expressing HEK293 cells (PAR4 antagonist activity, calcium mobilization)
Format: cell-based
CONDITION_DETAILS: FLIPR assay as described in Example A
Source text: The FLIPR assay is an exemplary in vitro assay for measuring the activity of the PAR4 antagonists of the present invention. In this assay, intracellular calcium mobilization is induced in PAR4 expressing cells by a PAR4 agonist and calcium mobilization is monitored. See, e.g., Example A. […]
log10 IC50, µM

Reference set, count: 3
# RECORD_SMILES, log10 of IC50
rows = [
    ("COc1nn2cc(-c3cc4c(OCc5ccc(F)cc5)cccc4o3)nc2s1", -1.37),
    ("COc1ccc2cc(-c3cn4nc(C(C)(F)F)sc4n3)oc2c1", -1.71),
    ("CSc1nn2cc(-c3nc4cccc(F)c4o3)nc2s1", -1.31),
]

query: Hi! What's the reported log10 of IC50 for CCOc1cccc2cc(-c3cn4nc(CC)sc4n3)oc12 on PAR4 (Homo sapiens (Human))?
result: -0.83

query: Moving on to the next compound: COc1cc(OCc2cccc(OCc3ccccc3Cl)c2)c2cc(-c3cn4nc(OC)sc4n3)oc2c1
result: -2.91

###

# pIC50 annotations
MEASURED_TARGET: UniProt Q96RI0
ASSAY_PROTOCOL: FLIPR assay in PAR4-expressing HEK293 cells (PAR4 antagonist activity, calcium mobilization)
Assay type: cell-based
CONDITION_DETAILS: FLIPR assay as described in Example A
As a rule, pIC50 stands for the negative log10 of the concentration, concentration in M.

Reference set, count: 3
# COMPOUND, pIC50
rows = [
    ("COc1cc(OCc2cccc(OCc3ccccc3)c2)c2cc(-c3cn4nc(C(C)(F)F)sc4n3)oc2c1", 8.56),
    ("CC(F)c1nn2cc(-c3cc4ccc(OCc5ccccc5)cc4o3)nc2s1 (stereo not drawn)", 6.50),
    ("COc1cc(OCc2cccc(OCc3cc(F)cc(C(F)(F)F)c3)c2)c2cc(-c3cn4nc(OC)sc4n3)oc2c1", 8.78),
]

query: What does the record list as pIC50 for COc1cc(OC(C)C)c2cc(-c3cn4nc(SC)sc4n3)oc2c1 ?
result: 7.73
